Tested on: HepG2 (hepatocellular carcinoma) cell line
cond: human
Provide the reported SI HepG2/W2 of each item.

Your task in this section: give SI HepG2/W2 for each listed record.
1. CC(=O)O[C@H]1C[C@H]2[C@@H]([C@H](OC(C)=O)C[C@@H]3C[C@H](NS(C)(=O)=O)CC[C@@]32C)[C@@H]2CC[C@H]([C@H](C)CCCN(C)CCNc3ccnc4cc(Cl)ccc34)[C@@]12C
2. CC(=O)O[C@H]1C[C@H]2[C@@H]([C@H](OC(C)=O)C[C@@H]3C[C@H](NC(=O)OC(C)(C)C)CC[C@@]32C)[C@@H]2CC[C@H]([C@H](C)CCCN(C)CCNc3ccnc4cc(Cl)ccc34)[C@@]12C
3. CC(=O)O[C@H]1C[C@H]2[C@@H]([C@H](OC(C)=O)C[C@@H]3C[C@H](N)CC[C@@]32C)[C@@H]2CC[C@H]([C@H](C)CCCN(CCCNc3ccnc4cc(Cl)ccc34)CCC[C@@H](C)[C@H]3CC[C@H]4[C@@H]5[C@H](OC(C)=O)C[C@@H]6C[C@H](N)CC[C@]6(C)[C@H]5C[C@H](OC(C)=O)[C@]34C)[C@@]12C
4. CC(=O)O[C@H]1C[C@H]2[C@@H]([C@H](OC(C)=O)C[C@@H]3C[C@H](N)CC[C@@]32C)[C@@H]2CC[C@H]([C@H](C)CCCN(C)CCNc3ccnc4cc(Cl)ccc34)[C@@]12C
5. CC(=O)O[C@H]1C[C@H]2[C@@H]([C@H](OC(C)=O)C[C@@H]3C[C@H](N(C)C)CC[C@@]32C)[C@@H]2CC[C@H]([C@H](C)CCCN(C)CCNc3ccnc4cc(Cl)ccc34)[C@@]12C
6. CC(=O)O[C@H]1C[C@H]2[C@@H]([C@H](OC(C)=O)C[C@@H]3CC(=O)CC[C@@]32C)[C@@H]2CC[C@H]([C@H](C)CCCNCCCCNc3ccnc4cc(Cl)ccc34)[C@@]12C
7. CC(=O)O[C@H]1C[C@H]2[C@@H]([C@H](OC(C)=O)C[C@@H]3C[C@H](NS(C)(=O)=O)CC[C@@]32C)[C@@H]2CC[C@H]([C@H](C)CCCNCCCNc3ccnc4cc(Cl)ccc34)[C@@]12C

## Output
1194/2707/2197
293/264/144
10/9/7
4993/3995/2327
6824/3920/3176
7/6/6
130/119/147

Your task in this section: give SI HepG2/W2 for each listed record.
1. CC(=O)O[C@H]1C[C@H]2[C@@H]([C@H](OC(C)=O)C[C@@H]3C[C@H](O)CC[C@@]32C)[C@@H]2CC[C@H]([C@H](C)CCCNCCCNc3ccnc4cc(Cl)ccc34)[C@@]12C
2. CC(=O)O[C@@H]1CC[C@@]2(C)[C@@H](C1)C[C@@H](OC(C)=O)[C@@H]1[C@@H]2C[C@H](OC(C)=O)[C@]2(C)[C@@H]([C@H](C)CCCNCCCNc3ccnc4cc(Cl)ccc34)CC[C@@H]12
3. CC(=O)O[C@H]1C[C@H]2[C@@H]([C@H](OC(C)=O)C[C@@H]3C[C@H](O)CC[C@@]32C)[C@@H]2CC[C@H]([C@H](C)CCCNCCCCNc3ccnc4cc(Cl)ccc34)[C@@]12C

## Output
["84/115/90", "104/101/67", "47/30/28"]
